Ref: patent US4725683A

Test system: Crabgrass
Assay: Postemergent activity
Assay type: in vivo
Details: 250 ppm
Measured % Control of individual entries
All answers are understood in %, so give the number only.

Some solved entries appear below for comparison.
molecule	% Control (%)
C=CC(=O)C(C)Oc1ccc(Oc2ccc(Br)cc2F)cc1 (stereo not shown)	98
CC(=O)C(C(C)=O)C(=O)C(C)Oc1ccc(Oc2ccc(Br)cc2F)cc1 (stereo not shown)	100
CCOC(=O)CC(O)C(C)Oc1ccc(Oc2ccc(Br)cc2F)cc1 (stereo not shown)	100

--- query ---
Which % Control value is on record for COC(=O)C=C(OC)C(C)Oc1ccc(Oc2ccc(Br)cc2F)cc1 (stereo not shown) ? 100

====

Tested on: Barnyard Grass
Assay: Preemergent activity
Assay type: in vivo
Settings: Echinochloa crus-galli, pre-emergence; 0.07 kgs/hectare; read-out: Preemergence Control
property.name: pest or weed control at 70 g/ha (%)
Provide the reading as a plain figure in %.

compound	pest or weed control at 70 g/ha, %
C#CCOC(=O)C(C)Oc1ccc(Oc2ccc(Br)cc2F)cc1 (centres unmarked)	0
CCCCCCCCOC(=O)C(C)Oc1ccc(Oc2ccc(Br)cc2F)cc1 (centres unmarked)	9
CC(Oc1ccc(Oc2ccc(Br)cc2F)cc1)C(=O)OCCN(C)C (centres unmarked)	70
COC(=O)[C@@H](C)Oc1ccc(Oc2ccc(Cl)cc2F)cc1 [4-Chloro-(R-Enantiomer)]	0
COC(=O)C(C)Oc1ccc(Oc2ccc(C(F)(F)F)cc2F)cc1 (centres unmarked)	80

Quick one: pest or weed control at 70 g/ha for COC(=O)C(C)Oc1ccc(Oc2ccc(Cl)cc2F)cc1 (racemic) ? 40

Okay, and CC(Oc1ccc(Oc2ccc(Br)cc2F)cc1)C(=O)O (centres unmarked) ? 50

====

System: Barley
Test: Postemergent activity
Format: in vivo
Conditions: 125 ppm
The following molecules are shown together with reported % Control values.
Just the number plus its unit, please.

Examples with answers:
molecule	% Control
COC(=O)[C@@H](C)Oc1ccc(Oc2ccc(Cl)cc2F)cc1 [4-Chloro-(R-Enantiomer)]	40%
COC(=O)C(C)Oc1ccc(Oc2ccc(Br)cc2F)cc1 (racemic)	10%
COC(=O)[C@@H](C)Oc1ccc(Oc2ccc(Br)cc2F)cc1 [4-Bromo-(R-Enantiomer)]	90%

// switching to the query molecule
What measured % Control goes with COC(=O)C(C)Oc1ccc(Oc2ccc(Cl)cc2F)cc1 (racemic) ? 0%

====

Tested on: Foxtail
Assay: Postemergent control of plant species
Type: in vivo
Settings: 62.5 ppm
property.name: Percent Control (%)
Field: numeric (%). Do not append units.

molecule	property.name	value.units	recorded.measurement
CC(=O)C(C(C)=O)C(=O)C(C)Oc1ccc(Oc2ccc(Br)cc2F)cc1 (centres unmarked)	Percent Control	%	100
C=CC(=O)C(C)Oc1ccc(Oc2ccc(Br)cc2F)cc1 (centres unmarked)	Percent Control	%	0
CC(=O)CC(O)C(C)Oc1ccc(Oc2ccc(Br)cc2F)cc1 (centres unmarked)	Percent Control	%	0
CCOC(=O)CC(O)C(C)Oc1ccc(Oc2ccc(Br)cc2F)cc1 (centres unmarked)	Percent Control	%	100

Please examine the following record next.
If you can, please state the reported Percent Control value of COC(=O)C=C(OC)C(C)Oc1ccc(Oc2ccc(Br)cc2F)cc1 (centres unmarked) . 0

====

Test system: Wheat
Assay: Preemergent activity
Assay type: in vivo
Settings: Triticum aestivum, pre-emergence; 1.12 kgs/hectare; read-out: Preemergence Control
property.name: plant injury at 1120 g/ha
Report field: quantity (unit follows the number).

Report plant injury at 1120 g/ha for C=CCNC(=O)C(C)Oc1ccc(Oc2ccc(Br)cc2F)cc1 (stereo not drawn) please. 0%

Next up: CC(Oc1ccc(Oc2ccc(Br)cc2F)cc1)C(=O)OC1CCCC1 (stereo not drawn) 80%

Same question for COC(=O)C(C)Oc1ccc(Oc2ccc(Cl)cc2F)cc1 (racemic) [Example 4-Chloro-] please. 0%

Also CCOCCOC(=O)C(C)Oc1ccc(Oc2ccc(Br)cc2F)cc1 (stereo not drawn) [O(CH2)2 OC2 H5] , if possible. 20%

Next compound up: C#CCOC(=O)C(C)Oc1ccc(Oc2ccc(Br)cc2F)cc1 (stereo not drawn) [OCH2CCH] 0%

What about this compound? CC(Oc1ccc(Oc2ccc(Br)cc2F)cc1)C(N)=O (stereo not drawn) [NH2] 40%

Note, next up: CC(Oc1ccc(Oc2ccc(Br)cc2F)cc1)C(=O)OCCN(C)C (stereo not drawn) [O(CH2)2 N(CH3)2] 0%

Then what about the compound Cc1cc(Cl)ccc1NC(=O)C(C)Oc1ccc(Oc2ccc(Br)cc2F)cc1 (stereo not drawn) ? 40%

Same question, CCCCCCCCOC(=O)C(C)Oc1ccc(Oc2ccc(Br)cc2F)cc1 (stereo not drawn) [O(CH2)7 CH3] this time 90%

Queued: COC(=O)[C@@H](C)Oc1ccc(Oc2ccc(Cl)cc2F)cc1 [4-Chloro-(R-Enantiomer)] 20%

COC(=O)C(C)Oc1ccc(Oc2ccc(I)cc2F)cc1 (stereo not drawn) , same question. 20%

Consider next the compound CC(Oc1ccc(Oc2ccc(Br)cc2F)cc1)C(=O)N(C)c1ccccc1 (stereo not drawn) in the same way. 0%
